Sourced from PubChem BioAssay (NCI)

# TGI per record follows
system: KM20L2 colon; test: NCI tumour cell line growth inhibition, 48 h

INSERT INTO measurements (mol, observed_property, result_value) VALUES
  ('CCOC(=O)N[C@H]1CCc2cc(OC)c(OC)c(OC)c2-c2ccc(SC)c(=O)cc21', 'TGI', '< 0.01 µM');

Lookup: So what does the record say about TGI for Cc1ccccc1C(=O)c1cc(O)ccc1O ?
Found: > 100 µM

Lookup: Would you kindly share the measured TGI for C[N+](C)([O-])CCOc1cc2c(c3ccccc13)-c1ccccc1C2=O ?
Found: > 63.5 µM

Lookup: Which TGI value belongs to On1c(-c2ccccc2)c(-c2ccccc2N2CCCC2)c2ccccc21 ?
Found: > 100 µM

Lookup: Given the compound O=C1OCC/C1=N/O , what is its reported TGI?
Found: > 100 µM

Lookup: So what does the record say about TGI for O=C(O)C(Cl)(Cl)Cl ?
Found: > 100 µM
